experimental details: qHTS assay to identify small molecule agonists of the estrogen receptor beta (ER-beta) signaling pathway - cell viability counter screen (AID 1259380); note: nearly all actives have a fitted effect of over 30% in size
stated conditions: ER-beta-bla HEK293T viability, CellTiter-Glo luminescence, 16 h; series mostly up to 92.4 µM
Excerpt: National Center for Advancing Translational Sciences [NCATS] NIH Chemical Genomics Center [NCGC] U.S. Environmental Protection Agency [EPA] National Institutes of Environmental Health Sciences [NIEHS] National Toxicology Program [NTP] U.S. Food and Drug Administration [FDA] Estrogen receptor (ER), a nuclear hormone receptor, plays an important role in development, metabolic homeostasis and reproduction. […]
Results filed as inconclusive are left out. Activity calls are given as the source filed them. Calls come from the whole dose curve; as a rule, active = well fitted cell-killing curve with a large enough effect in the repeat runs; inconclusive = weak or mixed curves, or effect the other way; inactive = flat fitted curve, though single readings scatter.
Outcomes: active, inactive

>>> category_label("CCCCCCC/C=C/C=O")
"inactive"
>>> category_label("CCCCCCCCCC(C)C=O (configuration not stated)")
"active"
>>> category_label("CC(CC(C#N)(c1ccccc1)C(C)C)N(C)C (configuration not stated)")
"inactive"
>>> category_label("CCC(C(=O)O)c1ccc(N2Cc3ccccc3C2=O)cc1 (configuration not stated)")
"inactive"
>>> category_label("O=C(O)c1cc(C(=O)O)cc([N+](=O)[O-])c1")
"inactive"
>>> category_label("Cc1cc(SC2=C(O)C[C@@](CCc3ccc(N)cc3)(C(C)C)OC2=O)c(C(C)(C)C)cc1CO")
"inactive"
>>> category_label("Clc1nc2ccccc2nc1Cl")
"inactive"
